Hello, the source for this data is ChEMBL document CHEMBL1201862, in case you need it.

# System: RXF 393
# experiment summary: NCI tumour cell line growth inhibition, 48 h
Active and inactive are the calls of the source. Rule as the data show it: active = GI50 up to about 1.1 µM and inactive = higher.
Select the correct class. Options are yes (1) (active), no (0) (inactive) and nothing else.

# example entries with known answers
Just curious, what result did CN(C)CCn1c(=O)c2ccc3c4c(nn3CCN(C)C)c3cc(N)ccc3n(c1=O)c24 get here?
yes (1)

Assay outcome for Cc1ccccc1NC(=O)c1cc(-c2ccc([N+](=O)[O-])cc2)nc(S)n1 : what was it?
no (0)

Can you look up the reported call for CN(/N=C/c1cccc2cccnc12)c1ccccc1 for me?
no (0)

Which result was noted for this compound in the test: O=C(c1ccccc1)c1c(C(F)(F)F)[n+]([O-])c2cc(Cl)c(Cl)cc2[n+]1[O-]
no (0)

Each compound tested received a call. Report the one for C=C1c2nc3ccccc3n2C=C(c2ccc(Cl)cc2)N1c1ccc(OCCN2CCCCC2)cc1 .
no (0)

More entries:
// outcome(item) with item = CC1=CC(=O)/C(=C/NC(=S)c2ccncc2)C(=O)O1
no (0)

Recorded test outcome, item CCOC(=O)NC1CC2CCC1(OC)C=C2C (stereo not given)
no (0)

Per the assay record, what outcome was assigned to CN(C)c1cccc2c1C(=O)C=CC21c2ccc(N(C)C)c3c(N(C)C)ccc(c23)C(c2ccccc2)C1c1ccccc1 (stereo not given) ?
no (0)

What call does the record list for CC(=O)N/C=C/c1cc(O)ccc1O ?
no (0)

I would be grateful if you could indicate the recorded call for CC(=O)NCCC1CN(C(=O)/C=C\C#C[Si](C)(C)C)c2ccccc21 (stereo not given) .
no (0)

In this assay, the call recorded for CN(/N=C/c1ccc(OCc2cccc(COc3ccc(C=O)cc3)n2)cc1)c1cnn(-c2ccc(Cl)cc2Cl)c(=O)c1Cl was what?
no (0)

What call does the record list for O/N=C1\CCCCC1C(NO)c1ccccc1 (stereo not given) ?
no (0)

----------
# Tested on: SR
# experiment summary: NCI tumour cell line growth inhibition, 48 h
Calls of active or inactive are those of the source. Rule as the data show it: active = GI50 up to about 1.1 µM and inactive = higher.
Assign a class; possible classes are active, inactive

Hello, I am checking results. What call was entered for O=C(O)c1ccc(NNC(=O)c2cccc3c(=O)c4ccccc4[nH]c23)cc1 ?
inactive

How did this test come out for O=C(CCC(=O)C1CCC/C1=N/O)Nc1ccc(Cl)cc1 (centres undefined) ?
inactive

Could you check what this test reported for CC(C)=CCC/C(C)=C/Cc1c(O)c(C)cc2c1[nH]c1cc(O)ccc12 ?
inactive

---
Write down the call the test reported for this compound. Item: CSC(=S)OC1CC(n2cnc3c(NC(=O)c4ccccc4)ncnc32)OC1CO[Si](C)(C)C(C)(C)C (centres undefined)
inactive

Lab log entry: CCCCCCCCCCCC[C@H](O)[C@H]1CC[C@H]([C@H](O)CCCC[C@H](O)CCCCC[C@@H](O)CC2=C[C@H](C)OC2=O)O1 — outcome as called in the assay?
inactive

Each compound tested received a call. Report the one for CC1(C)CCC2(C(=O)OC3OC(CO)C(O)C(O)C3O)CCC3(CO)C(=CCC4C5(C)CC(O)C(O)C(C)(C(=O)OC6OC(CO)C(O)C(O)C6O)C5CCC43C)C2C1 (centres undefined) .
inactive

Name the outcome recorded for C#C/C=C\CCCC/C=C\C#CC#CCCCC#CC#C[C@H](COS(=O)(=O)O)OS(=O)(=O)O in the assay.
inactive

Name the outcome recorded for COc1ccc2c(c1)CC[C@@H]1C2CC[C@](C)(C#N)C1CC#N (some centres undefined) in the assay.
inactive

Outcome logged for CC1=C(c2ccccc2)NC(=S)C(C)C(c2ccccc2)=N1 (centres undefined) in this assay:
inactive

Hi, sorry to bother you, what did the test record for Clc1ccccc1/C=C/c1ccnc2ccccc12 ?
inactive

----------
# Tested on: NCI/ADR-RES
# experiment summary: NCI tumour cell line growth inhibition, 48 h
Active and inactive are the calls of the source. Cut-off read from the data, not from the text of the source: active = GI50 up to about 1.1 µM and inactive = higher.
Can you answer with just one of these options? T (active), F (inactive)

Lab log entry: Oc1nc2cc(Cl)ccc2nc1/C(=N\Nc1ccccc1)C(O)c1ccc2c(c1)OCO2 (configuration not stated) — outcome as called in the assay?
F

Hi, sorry to bother you, what did the test record for CN(C)c1cccc2c1C(=O)C=CC21c2ccc(N(C)C)c3c(N(C)C)ccc(c23)C(c2ccccc2)C1c1ccccc1 (configuration not stated) ?
F

What call does the record list for C=C1C(C[C@@H]2O[C@H]3C[C@H]4O[C@@]5(C[C@@H]6O[C@]7(C[C@H](C)[C@@H]8O[C@@H]9CC(C(O)CO)O[C@@H]9C[C@@H]8O7)C[C@H](C)[C@@H]6O5)C[C@H]4O[C@H]3[C@H](C)[C@H]2O)O[C@@H](CC[C@@H]2O[C@@H](CC[C@@]34CC5O[C@H]6C(O[C@H]7CC[C@H](CC(=O)OC)O[C@@H]7[C@@H]6O3)[C@H]5O4)CC2=C)C[C@H]1C (some centres not stated) ?
T

Outcome logged for O=C(O)c1ccccc1-c1ccccc1C(=O)Nc1ccc2c(c1)Cc1ccccc1-2 in this assay:
F

Kindly provide the recorded test outcome for the following molecule: O=S(=O)(O)c1cc(/N=[N+](\[O-])c2cc(S(=O)(=O)O)c3ccccc3c2)cc2ccccc12
F

Continuing:
I'd appreciate the recorded outcome for O=C1Nc2ccc(Br)cc2/C1=N/NC(=S)Nc1ccc(F)cc1 from this test.
F

Field: outcome | Entry: O=[N+]([O-])c1cc2[nH]nnc2c2nonc12
F

----------
# System: UACC-257
# experiment summary: NCI tumour cell line growth inhibition, 48 h
Active and inactive are the calls of the source. No stated cut-off is given here; in the data, active = GI50 up to about 1.1 µM and inactive = higher.
readout: GI50

Worked examples, 4 molecules total:
For CC(=O)NC1=C(OS(=O)(=O)c2ccc(C)cc2)CN(C)C1=O , what is its reported GI50?
2.49 µM (inactive)

// returns reported GI50 for input O=c1[nH]c2ccsc2c(=O)n1COCc1ccccc1
> 100 µM (inactive)

Value lookup for GI50; key = CCC1(C(=O)OC(C)(C)C)OC12C(C)CCCC2C (stereo not given)
31 µM (inactive)

For Cc1ccc(Nc2cccc3c2C(=O)c2cccc(Nc4ccc(C)cc4S(=O)(=O)O)c2C3=O)c(S(=O)(=O)O)c1 , what is its reported GI50?
> 100 µM (inactive)

Further cases:
Bench note: what GI50 did Clc1cc(Cl)c2c(Cl)cc(Cl)c3c2c1N=S=N3 show?
> 100 µM (inactive)

----------
Catalogue of GI50 values
# System: IGROV-1
# experiment summary: NCI tumour cell line growth inhibition, 48 h
Active and inactive are the calls of the source. Cut-off read from the data, not from the text of the source: active = GI50 up to about 1.1 µM and inactive = higher.

Consider the compound shown here: COC(=O)C1C(=O)N(C)C(=O)N2CCCC12 (configuration not stated) What is its recorded GI50?
> 100 µM (inactive)

# get_value(readout='GI50', item= CCOC(=O)/C(=C\c1ccnc2ccccc12)P(=O)(OCC)OCC )
1.6 µM (inactive)

Entry CC(C)(C)OC(=O)NCC(O)CNC(=O)OC(C)(C)C : reported GI50 = ?
> 100 µM (inactive)

For O=C(Nc1ccc(S(=O)(=O)/N=c2\ncccn2C(=O)C(C(F)(F)F)C(F)(F)F)cc1)C(C(F)(F)F)C(F)(F)F , what is its reported GI50?
> 100 µM (inactive)

Continuing:
I have this compound here, O=C1Nc2c(Cl)cc(Cl)cc2/C1=N/NC(=O)c1ccncc1 , and I need its recorded GI50.
22.9 µM (inactive)

Item CN(C)c1nc(N(C)C)nc(N(C)CN(C)c2ccc(Cl)cc2)n1 has what recorded GI50?
> 100 µM (inactive)

Any idea what GI50 was measured for CC(C)=CCC/C(C)=C/Cc1c(O)c(C)cc2c1[nH]c1cc(O)ccc12 ?
> 25 µM (inactive)

----------
# System: SF-295
# experiment summary: NCI tumour cell line growth inhibition, 48 h
Active and inactive are the calls of the source. No stated cut-off is given here; in the data, active = GI50 up to about 1.1 µM and inactive = higher.
The reply should name one outcome from active, inactive

Would you please look over these solved cases?
Please indicate how the test categorized COC(=O)c1nc(N)nc(C(=O)OC)c1C(=O)c1ccccc1 .
inactive

Each compound tested received a call. Report the one for C/C(=N\NC(=S)Nc1ccc(C)cc1)c1nc2cccnc2[nH]1 .
inactive

Which outcome was entered for the compound O=c1[nH]c2ccsc2c(=O)n1COCc1ccccc1 in this test?
inactive

GET /call?item= C=CCCCC1SC2=C(CC)CCCN2C1=O (stereo unspecified) returns the recorded outcome of this test.
inactive

Please share the test call associated with CCOC(=O)OC1C(Br)C2CCC1(C)C2(C)C (stereo unspecified) .
inactive

How did this test come out for CCCCCCCCCCCC[C@@H](O)[C@H]1CC[C@H]([C@H](O)CCCC[C@H](O)CCCCC[C@@H](O)CC2=C[C@H](C)OC2=O)O1 ?
active

Switching to the query record.
// param item: O=C(OCC1CCCN2CCCCC12)c1cccnc1 (stereo unspecified) ; yields the recorded call
inactive

----------
# System: SF-295
# experiment summary: NCI tumour cell line growth inhibition, 48 h
Calls of active or inactive are those of the source. Rule as the data show it: active = GI50 up to about 1.1 µM and inactive = higher.
readout: GI50

Requested read-out GI50, target or system SF-295, entry O=C1OC(=O)C2CCCC3CCCC1C32 (configuration not stated)
> 100 µM (inactive)

What value of GI50 on SF-295 does Cc1ccccc1NC(=O)c1cc(-c2ccc([N+](=O)[O-])cc2)nc(S)n1 have?
> 100 µM (inactive)

Lab note: need GI50 for CN(/N=C/c1ccc(OCc2cccc(COc3ccc(C=O)cc3)n2)cc1)c1cnn(-c2ccc(Cl)cc2Cl)c(=O)c1Cl on SF-295, anyone have it?
20.2 µM (inactive)

Quick check: GI50 on SF-295, item Cc1nc(=O)c2cc(CN(C)c3ccc(C(=O)N[C@@H](CCC(=O)O)C(=O)O)s3)ccc2[nH]1 ?
0.0535 µM (active)

Request: GI50, test system SF-295, entry COc1ccc(OC(C(=O)O)C(C)C)c2c1CCCC2=O (configuration not stated)
> 100 µM (inactive)

New cases:
What GI50 appears in the records for this compound with SF-295? Cn1c(=O)c2c(ncn2CN2CCN(Cn3cnc4c3c(=O)n(C)c(=O)n4C)CC2)n(C)c1=O
> 100 µM (inactive)
